B1: LOXL2 (parent)
chain: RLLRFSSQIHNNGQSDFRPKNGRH

# Variants of: B1
# run description: protein stability index of a GFP-peptide fusion (GPS, HEK-293T) (PSI 1-6); higher = more stable;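 note: lentivirally expressed fusions sorted by FACS into six bins by GFP to DsRed ratio, PSI derived from sequencing read proportions per bin multiplied by bin number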
# condition set: c terminus: a fixed tail appended
// reported protein stability index per item
reported property: protein stability index

> print(dat)
    residue.change        reported.property  experimental.value
 1             L2E  protein stability index                3.98
 2             Q8M  protein stability index                1.95
 3            H10A  protein stability index                3.28
 4            N21K  protein stability index                2.85
 5             L2W  protein stability index                2.71
 6            S15G  protein stability index                3.29
 7             F5R  protein stability index                3.69
 8            R23W  protein stability index                1.91
 9            S15W  protein stability index                2.44
10             L3M  protein stability index                3.37
11             S6Q  protein stability index                2.71
12            F17A  protein stability index                2.95
13             R1D  protein stability index                2.97
14             I9R  protein stability index                3.24
15            R18M  protein stability index                2.67
16            Q14G  protein stability index                2.52
17             Q8I  protein stability index                2.23
18             L3P  protein stability index                3.91
19            K20H  protein stability index                 2.6
20             S7M  protein stability index                1.79
21            S15E  protein stability index                3.14
22            N21Q  protein stability index                2.71
